B1: library; numbered along this chain (parent)
chain: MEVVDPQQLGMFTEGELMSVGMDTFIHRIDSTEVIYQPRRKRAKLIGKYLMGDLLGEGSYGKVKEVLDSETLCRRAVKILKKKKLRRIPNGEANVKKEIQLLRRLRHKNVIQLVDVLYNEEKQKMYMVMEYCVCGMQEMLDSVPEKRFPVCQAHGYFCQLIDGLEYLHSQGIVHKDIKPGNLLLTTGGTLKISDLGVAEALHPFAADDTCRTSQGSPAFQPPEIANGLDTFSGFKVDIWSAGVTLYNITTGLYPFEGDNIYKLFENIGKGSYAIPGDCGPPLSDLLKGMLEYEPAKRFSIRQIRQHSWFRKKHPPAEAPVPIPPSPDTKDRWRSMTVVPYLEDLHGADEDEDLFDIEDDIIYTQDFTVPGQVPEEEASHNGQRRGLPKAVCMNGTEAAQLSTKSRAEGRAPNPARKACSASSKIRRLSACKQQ

Variants of: B1
Assay: STK11 functional score (HeLa growth suppression), rescaled enrichment; synonymous median = 1, nonsense median = 0 (normalised score)
Settings: with HeLa; variant type: missense
Here the recorded STK11 functional score is given for each entry.
PROPERTY MEASURED: STK11 functional score

- MUTATION STRING: "C430S"
  MEASURED VALUE: 1.56
- MUTATION STRING: "L184F"
  MEASURED VALUE: 0.735
- MUTATION STRING: "F148E"
  MEASURED VALUE: 0.147
- MUTATION STRING: "K269W"
  MEASURED VALUE: 0.728
- MUTATION STRING: "K108V"
  MEASURED VALUE: 0.939
- MUTATION STRING: "L282I"
  MEASURED VALUE: 0.764
- MUTATION STRING: "W308Y"
  MEASURED VALUE: -0.119
- MUTATION STRING: "H107L"
  MEASURED VALUE: 0.324
- MUTATION STRING: "R211M"
  MEASURED VALUE: 1.42
- MUTATION STRING: "D115V"
  MEASURED VALUE: 1.27
- MUTATION STRING: "K41C"
  MEASURED VALUE: 1.47
- MUTATION STRING: "F354N"
  MEASURED VALUE: 1.6
- MUTATION STRING: "K416P"
  MEASURED VALUE: 1.61
- MUTATION STRING: "N94T"
  MEASURED VALUE: 1.27
- MUTATION STRING: "E98W"
  MEASURED VALUE: 0.16
- MUTATION STRING: "P387A"
  MEASURED VALUE: 1.32
- MUTATION STRING: "T209M"
  MEASURED VALUE: 1.43
- MUTATION STRING: "A429W"
  MEASURED VALUE: 1.21
- MUTATION STRING: "S378A"
  MEASURED VALUE: 1.44
- MUTATION STRING: "V320I"
  MEASURED VALUE: 1.59
- MUTATION STRING: "S419D"
  MEASURED VALUE: 1.1
- MUTATION STRING: "L344D"
  MEASURED VALUE: 1.46
- MUTATION STRING: "R426H"
  MEASURED VALUE: 1.61
- MUTATION STRING: "D141M"
  MEASURED VALUE: 1.22
- MUTATION STRING: "G242N"
  MEASURED VALUE: -0.133
- MUTATION STRING: "I177M"
  MEASURED VALUE: 0.6
- MUTATION STRING: "H174V"
  MEASURED VALUE: 0.69
- MUTATION STRING: "M51V"
  MEASURED VALUE: 0.725
- MUTATION STRING: "D348H"
  MEASURED VALUE: 1.18
- MUTATION STRING: "R104Y"
  MEASURED VALUE: 0.684
- MUTATION STRING: "A93S"
  MEASURED VALUE: 0.907
- MUTATION STRING: "K78P"
  MEASURED VALUE: -0.226
- MUTATION STRING: "R384E"
  MEASURED VALUE: 1.53
- MUTATION STRING: "K108Q"
  MEASURED VALUE: 1.39
- MUTATION STRING: "T230P"
  MEASURED VALUE: 1.1
- MUTATION STRING: "S193R"
  MEASURED VALUE: -0.142
